Record form. Attribute: IC50. Fill in for each entry.
Target: HCV polymerase 1B (Δ21 NS5B, BK) (Hepatitis C virus genotype 1b)
Construct: 20 to 50 nM Δ21 NS5B
Sequence (P26663 2420-2989, stated change not applied): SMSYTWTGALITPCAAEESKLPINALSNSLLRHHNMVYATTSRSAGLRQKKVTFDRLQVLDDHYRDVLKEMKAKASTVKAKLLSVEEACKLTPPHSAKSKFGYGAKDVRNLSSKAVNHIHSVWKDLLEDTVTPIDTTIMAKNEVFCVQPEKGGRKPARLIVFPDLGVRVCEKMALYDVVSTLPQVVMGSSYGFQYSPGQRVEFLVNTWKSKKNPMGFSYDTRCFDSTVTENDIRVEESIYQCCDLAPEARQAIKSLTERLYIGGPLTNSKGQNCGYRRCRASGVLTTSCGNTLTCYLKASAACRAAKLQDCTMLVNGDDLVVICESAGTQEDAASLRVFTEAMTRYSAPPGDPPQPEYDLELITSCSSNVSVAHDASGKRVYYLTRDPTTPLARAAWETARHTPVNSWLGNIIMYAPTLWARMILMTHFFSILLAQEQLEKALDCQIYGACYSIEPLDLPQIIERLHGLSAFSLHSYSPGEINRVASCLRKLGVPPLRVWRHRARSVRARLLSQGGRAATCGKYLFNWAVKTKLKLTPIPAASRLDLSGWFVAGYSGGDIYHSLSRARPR
Test: biochemical

Memo: COc1c(C(=O)Nc2ccc3c(c2)CCC(=O)N3)cc(N2CCC(=O)NC2=O)cc1C(C)(C)C [IA-L3-2.4] , reported IC50: > 1000 nM

So for COc1cc(NS(C)(=O)=O)ccc1NC(=O)c1cc(N2CCC(=O)NC2=O)cc(C(C)(C)C)c1OC [IA-L3-1.85] , the logged IC50 turned out to be 100 to 1000 nM

The recorded IC50 for COc1c(-c2ccc(NC(=O)NS(C)(=O)=O)cc2)cc(-n2ccc(=O)[nH]c2=O)cc1C(C)(C)C [IB-L0-1.7] is 10 to 100 nM

So for COc1c(-c2ncc(-c3cccc(NS(C)(=O)=O)c3)o2)cc(N2CCC(=O)NC2=O)cc1C(C)(C)C [IA-L0-1.9] , the logged IC50 turned out to be 100 to 1000 nM

compound COc1c(-c2ccc3c(c2)CC=C3CNS(C)(=O)=O)cc(-n2ccc(=O)[nH]c2=O)cc1C(C)(C)C [IB-L0-2.13] , IC50 observed: 10 to 100 nM

IC50 in this record for CC(C)(C)c1cc(N2CCC(=O)NC2=O)cc(C(=O)Nc2ccc(NS(=O)(=O)CC(F)(F)F)cc2)c1O [IA-L3-1.9] : 10 to 100 nM

Quick note, IC50 for CCN(c1ccc(NC(=O)c2cc(N3CCC(=O)NC3=O)cc(C(C)(C)C)c2OC)cc1)S(C)(=O)=O [IA-L3-1.63] landed at > 1000 nM

For COc1c(-c2ccc3c(c2)CC=C3CNS(C)(=O)=O)cc(-n2ccc(=O)[nH]c2=O)cc1-c1cccs1 [IB-L0-2.63] the compound record lists IC50 as 10 to 100 nM

What the record says about COc1c(CNc2ccc(NS(C)(=O)=O)cc2)cc(N2CCC(=O)NC2=O)cc1C(C)(C)C [IA-L9-1.4] : IC50 is 100 to 1000 nM

###

Record form. Attribute: EC50. Fill in for each entry.
Tested on: genotype 1a-H77 subgenomic replicon cell line
Assay: microbe, parasite or virus in culture
Assay type: cell-based, HCV
Settings: Hepatitis C virus, read-out: EC50 1a

The molecule listed as COCCS(=O)(=O)Nc1ccc(NC(=O)c2cc(N3CCC(=O)NC3=O)cc(C(C)(C)C)c2O)cc1 [IA-L3-1.8] has a reported EC50 of > 1000 nM

Form: molecule = COc1c(-c2ccc3cc(NS(C)(=O)=O)ccc3c2)cc(-n2ccc(=O)[nH]c2=O)cc1C(C)(C)CO [IB-L0-2.54] ; EC50 = 10 to 100 nM

The molecule listed as COc1c(/C=C/c2ccc(NS(C)(=O)=O)cc2)cc(-n2ccc(=O)[nH]c2=O)cc1-c1ccsc1 [IB-L1-1.47] shows EC50 equal to 100 to 1000 nM

So, COc1c(-c2nc3cc(NS(C)(=O)=O)ccc3o2)cc(-n2ccc(=O)[nH]c2=O)cc1C(C)(C)C [IB-L0-2.6] ? Its EC50 was 100 to 1000 nM

// COCc1cc(NS(C)(=O)=O)ccc1/C=C/c1cc(-n2ccc(=O)[nH]c2=O)cc(C(C)(C)C)c1OC [IB-L1-1.13] : EC50 value = 10 to 100 nM

Kindly note the recorded EC50 for COc1c(-c2ccc3c(c2)CC[C@H]3CNS(C)(=O)=O)cc(-n2ccc(=O)[nH]c2=O)cc1C(C)(C)C (single isomer, unassigned) [IB-L0-2.15] , which is 100 to 1000 nM

Summary for this molecule, COc1c(-c2ccc3c(CN(C)S(C)(=O)=O)csc3c2)cc(-n2ccc(=O)[nH]c2=O)cc1C(C)(C)C [IB-L0-2.21] : EC50 is 100 to 1000 nM

###

Assignment: determine reported EC50 for the given molecules.
System: genotype 1a-H77 subgenomic replicon cell line
Assay: microbe, parasite or virus in culture
Type: cell-based, HCV
Conditions: Hepatitis C virus, read-out: EC50 1a

The molecule COc1c(C#Cc2ccccc2)cc(N2CCC(=O)NC2=O)cc1C(C)(C)C , tested on genotype 1a-H77 subgenomic replicon cell line, showed EC50 of 0.1 to 1 µM

Simply: COC(=O)C(C)(C)c1cc(-n2ccc(=O)[nH]c2=O)cc(-c2ccc3cc(NS(C)(=O)=O)ccc3c2)c1OC , genotype 1a-H77 subgenomic replicon cell line, EC50 = > 1 µM

Form field, EC50 with genotype 1a-H77 subgenomic replicon cell line, item COc1c(C(=O)Nc2ccc(NS(=O)(=O)CC(C)C)cc2)cc(N2CCC(=O)NC2=O)cc1C(C)(C)C : > 1 µM

Sample CC(C)(C)c1cc(NC(=O)c2ccc(NS(C)(=O)=O)cc2)cc(N2CCC(=O)NC2=O)c1 , system: genotype 1a-H77 subgenomic replicon cell line. Its EC50 is > 1 µM

With genotype 1a-H77 subgenomic replicon cell line as the test system, COc1c(-c2ccc3c(c2)CC=C3CN(C)S(C)(=O)=O)cc(-n2ccc(=O)[nH]c2=O)cc1C(C)(C)C showed EC50 of 0.1 to 1 µM

# EC50 measured on genotype 1a-H77 subgenomic replicon cell line for item COc1c(C#Cc2cc(F)c(NS(C)(=O)=O)cc2C)cc(-n2ccc(=O)[nH]c2=O)cc1C(C)(C)C = 0.01 to 0.1 µM

Field EC50 (system: genotype 1a-H77 subgenomic replicon cell line) for entry CO/N=C/c1cc(NS(C)(=O)=O)ccc1/C=C/c1cc(-n2ccc(=O)[nH]c2=O)cc(C(C)(C)C)c1OC = 0.01 to 0.1 µM

// assay genotype 1a-H77 subgenomic replicon cell line, entry COc1c(C(=O)Nc2ccc(O)cc2)cc(N2CCC(=O)NC2=O)cc1C(C)(C)C , EC50 value = > 1 µM

Item COc1c(C#Cc2ccc(NS(C)(=O)=O)c(C)c2)cc(N2CCC(=O)NC2=O)cc1C(C)(C)C was tested on genotype 1a-H77 subgenomic replicon cell line; the reported EC50 is 0.1 to 1 µM

Lab entry: genotype 1a-H77 subgenomic replicon cell line assay, molecule COc1ccc(/C=C/c2cc(N3CCC(=O)NC3=O)cc(C(C)(C)C)c2OC)cc1 , EC50 = > 1 µM

Response field EC50 (genotype 1a-H77 subgenomic replicon cell line) for item COc1c(-c2ccc3cc(NS(C)(=O)=O)ccc3c2)cc(-n2ccc(=O)[nH]c2=O)cc1-c1ccc(C)s1 : 0.1 to 1 µM

Form: item COc1c(C(=O)Nc2scc(CNS(C)(=O)=O)c2S(N)(=O)=O)cc(N2CCC(=O)NC2=O)cc1C(C)(C)C ; test system genotype 1a-H77 subgenomic replicon cell line; EC50: > 1 µM

Given the molecule CC(C)(C)c1cc(N2CCC(=O)NC2=O)cc(C(=O)Nc2ccc(NS(C)(=O)=O)cc2)c1O and test system genotype 1a-H77 subgenomic replicon cell line, the measured EC50 is 0.1 to 1 µM

Form field EC50 for item COc1c(-c2ccc3c(CNS(C)(=O)=O)coc3c2)cc(-n2ccc(=O)[nH]c2=O)cc1C(C)(C)C on genotype 1a-H77 subgenomic replicon cell line: 0.1 to 1 µM

EC50 of COc1c(I)cc(-n2ccc(=O)[nH]c2=O)cc1/C=C/c1ccc(NS(C)(=O)=O)cc1 , assay on genotype 1a-H77 subgenomic replicon cell line, is > 1 µM

Reading of EC50 for CC(C)(C)c1cc(N2CCC(=O)NC2=O)cc(C(=O)Nc2ccccc2S(N)(=O)=O)c1O with genotype 1a-H77 subgenomic replicon cell line: > 1 µM

For the molecule COc1c(C(=O)Cc2ccc(NS(C)(=O)=O)cc2)cc(N2CCC(=O)NC2=O)cc1C(C)(C)C , the measured EC50 on genotype 1a-H77 subgenomic replicon cell line was 0.1 to 1 µM

genotype 1a-H77 subgenomic replicon cell line EC50 of Cc1cc(NS(C)(=O)=O)ccc1C#Cc1cc(N2CCC(=O)NC2=O)cc(C(C)(C)C)c1 is 0.01 to 0.1 µM

Measured EC50 for this entry COc1c(C(=O)Nc2cccc(CNS(C)(=O)=O)c2)cc(N2CCC(=O)NC2=O)cc1C(C)(C)C on genotype 1a-H77 subgenomic replicon cell line: > 1 µM

Observed EC50 on genotype 1a-H77 subgenomic replicon cell line, entry COc1c(/C=C\c2ccc(NS(C)(=O)=O)cc2)cc(-n2ccc(=O)[nH]c2=O)cc1C(C)(C)C , equals 0.01 to 0.1 µM

Simply: COc1c(C(=O)Nc2ccc(OCC#N)cc2)cc(N2CCC(=O)NC2=O)cc1C(C)(C)C , genotype 1a-H77 subgenomic replicon cell line, EC50 = > 1 µM

The measured EC50 that CC(C)(C)c1cc(N2CCC(=O)NC2=O)cc(C(=O)Nc2cccc(CNS(C)(=O)=O)c2)c1O showed for genotype 1a-H77 subgenomic replicon cell line is > 1 µM
